- Test system: paddy rice
- assay overview: Experiment 7 flooded soil treatment: injury to paddy rice
- Type: in vivo
- experimental conditions: 6.25 g/10a, evaluated 4 weeks after treatment
# reported Injury of Paddy; entries follow
Give the value as a plain number.

Take a look at these entries with their results.
# compound, Injury of Paddy
data = [
    ("C#CC(C)Oc1cc(N(C(=O)C2=C(C(=O)OCCOC)CCCC2)C(=O)c2cccs2)c(F)cc1Cl (stereo not shown)", 0.5),
    ("C#CC(C)Oc1cc(N(C(=O)C2=C(C(=O)OCCCC)CCCC2)C(=O)c2ccsc2)c(F)cc1Cl (stereo not shown)", 0.5),
    ("C#CC(C)Oc1cc(N(C(=O)C2=C(C(=O)OC)CCCC2)C(=O)c2cccs2)c(F)cc1Cl (racemic)", 0),
]

C#CC(C)Oc1cc(N(C(=O)C2=C(C(=O)OCCCC)CCCC2)C(=O)c2cccs2)c(F)cc1Cl (stereo not shown) has a reported Injury of Paddy of 0.5

----------
# reported Herbicidal Effect tamagayatsuri; entries follow
- Test system: tamagayatsuri (small-flowered umbrellaplant, Cyperus difformis)
- assay overview: Experiment 4 flooded soil treatment: tamagayatsuri
- Type: in vivo
- Design: key: 5: completely killed; 4: seriously injured; 3: considerably injured; 2: somewhat injured; 1: slightly injured; 0: not injured (normally grown)
- experimental conditions: 6.25 g/10a, 4 weeks after treatment
Give the value as a plain number.

Take a look at these entries with their results.
# molecule, Herbicidal Effect tamagayatsuri
records = [
    ("COCCOC(=O)C1=C(C(=O)N(C(=O)c2cccnc2)c2cc(C(=O)OC)c(Cl)cc2F)CCCC1 [compound 65]", 4),
    ("C#CC(C)Oc1cc(N(C(=O)C2=C(C(=O)OC)CCCC2)C(=O)c2cncc(C(=O)OC)c2)c(F)cc1Cl (stereo not shown) [compound 67]", 5),
    ("C#CC(C)Oc1cc(N(C(=O)C2=C(C(=O)OC)CCCC2)C(=O)c2cccnc2)c(Cl)cc1Cl (stereo not shown) [compound 70]", 5),
    ("C#CC(C)Oc1cc(N(C(=O)C2=C(C(=O)OCCOCC)CCCC2)C(=O)c2cccnc2)c(F)cc1Cl (stereo not shown) [compound 60]", 5),
    ("COC(=O)C1=C(C(=O)N(C(=O)c2cccnc2)c2cc(C(=O)OC)c(Cl)cc2F)CCCC1 [compound 64]", 4),
    ("C#CC(C)Oc1cc(N(C(=O)C2=C(C(=O)OCCOC)CCCC2)C(=O)c2cccnc2)c(Cl)cc1Cl (stereo not shown) [compound 71]", 5),
]

Alright, here's another molecule for you.
CCCCOC(=O)c1cc(N(C(=O)C2=C(C(=O)OC)CCCC2)C(=O)c2cccnc2)c(F)cc1Cl [compound 66] has a reported Herbicidal Effect tamagayatsuri of 4

----------
# reported Herbicidal Effect aobiyu; entries follow
- Tested on: aobiyu (slender amaranth, Amaranthus viridis)
- assay overview: Experiment 2 foliage treatment: aobiyu
- Format: in vivo
- Design: key: 5: completely killed; 4: seriously injured; 3: considerably injured; 2: somewhat injured; 1: slightly injured; 0: not injured (normally grown)
- experimental conditions: 40 g/10a, 4 weeks after treatment
Give the value as a plain number.

# molecule, result
rows = [
    ("CCCCCOC(=O)C1=C(C(=O)N(C(=O)CC)c2cc(SCC(=O)OC)c(Cl)cc2F)CCCC1", 5),
    ("CCCCOC(=O)C1=C(C(=O)N(C(C)=O)c2cc(SCC(=O)OCC)c(Cl)cc2F)CCCC1", 5),
    ("CCCOC(=O)C1=C(C(=O)N(C(C)=O)c2cc(SCC(=O)OC)c(Cl)cc2F)CCCC1", 5),
    ("CCOC(=O)C1=C(C(=O)N(C(C)=O)c2cc(SCC(=O)OC)c(Cl)cc2F)CCCC1", 5),
    ("CCC(=O)Nc1ccc(Cl)c(Cl)c1 [Comparative agentB, Propanil, reference compound]", 5),
]

CCOC(=O)C1=C(C(=O)N(C(=O)CC)c2cc(SCC(=O)OC)c(Cl)cc2F)CCCC1 has a reported Herbicidal Effect aobiyu of 5

CCCCOC(=O)C1=C(C(=O)N(C(=O)CC)c2cc(SCC(=O)OC)c(Cl)cc2F)CCCC1 has a reported Herbicidal Effect aobiyu of 5

CCC(=O)N(C(=O)C1=C(C(=O)OC)CCCC1)c1cc(SCC(=O)OC)c(Cl)cc1F has a reported Herbicidal Effect aobiyu of 5

CCCCOC(=O)CSc1cc(N(C(C)=O)C(=O)C2=C(C(=O)OCCCC)CCCC2)c(F)cc1Cl has a reported Herbicidal Effect aobiyu of 5

C#CCOC(=O)C1=C(C(=O)N(C(C)=O)c2cc(SCC(=O)OC)c(Cl)cc2F)CCCC1 has a reported Herbicidal Effect aobiyu of 4.5

COC(=O)CSc1cc(N(C(=O)C2=C(C(=O)OC)CCCC2)C(=O)c2cccc(F)c2)c(F)cc1Cl has a reported Herbicidal Effect aobiyu of 5

COC(=O)C1=C(C(=O)N(C(C)=O)c2cc(SC(C)C(=O)OC)c(Cl)cc2F)CCCC1 (stereo not drawn) has a reported Herbicidal Effect aobiyu of 5

----------
- Test system: noasagao (blue morningglory, Ipomoea indica)
- assay overview: Experiment 3 foliage treatment: noasagao
- Format: in vivo
- Set-up: key: 5: completely killed; 4: seriously injured; 3: considerably injured; 2: somewhat injured; 1: slightly injured; 0: not injured (normally grown)
- experimental conditions: 4 g/10a, 4 weeks after treatment
# reported Herbicidal Effect noasagao; entries follow
Give the value as a plain number.

Take a look at these entries with their results.
# compound, Herbicidal Effect noasagao
data = [
    ("CCCOC(=O)C1=C(C(=O)N(C(C)=O)c2cc(SCC(=O)OC)c(Cl)cc2F)CCCC1 [compound 13]", 5),
    ("COC(=O)C1=C(C(=O)N(C(C)=O)c2cc(SC(C)C(=O)OC)c(Cl)cc2F)CCCC1 (centres unmarked) [compound 20]", 4),
    ("CCOC(=O)C1=C(C(=O)N(C(=O)CC)c2cc(SCC(=O)OC)c(Cl)cc2F)CCCC1 [compound 33]", 4),
]

CCc1cnc(C2=NC(C)(C(C)C)C(=O)N2)c(C(=O)O)c1 (centres unmarked) [Comparative agentC, Pursuit, reference compound] has a reported Herbicidal Effect noasagao of 3

CCCCOC(=O)C1=C(C(=O)N(C(=O)CC)c2cc(SCC(=O)OC)c(Cl)cc2F)CCCC1 [compound 35] has a reported Herbicidal Effect noasagao of 4

----------
- Test system: ichibi (velvetleaf, Abutilon theophrasti)
- assay overview: Experiment 9 foliage treatment: ichibi
- Assay type: in vivo
- Parameters: key: 5: completely killed; 4: seriously injured; 3: considerably injured; 2: somewhat injured; 1: slightly injured; 0: not injured (normally grown)
- experimental conditions: 8 g/10a, foliage spray of wettable powder suspension, evaluated 4 weeks after treatment
assay metric: Herbicidal Effet ichibi
Give the value as a plain number.

Take a look at these entries with their results.
# compound, result
data = [
    ("C#CC(C)Oc1cc(N(C(=O)C2=C(C(=O)OC)CCCC2)C(=O)c2ccsc2)c(F)cc1Cl (centres unmarked)", 5),
    ("C#CC(C)Oc1cc(N(C(=O)C2=C(C(=O)OC)CCCC2)C(=O)c2ccc(Cl)s2)c(F)cc1Cl (centres unmarked)", 5),
    ("C#CC(C)Oc1cc(N(C(=O)C2=C(C(=O)OC)CCCC2)C(=O)c2cccs2)c(F)cc1Cl (racemic)", 5),
]

CCc1cnc(C2=NC(C)(C(C)C)C(=O)N2)c(C(=O)O)c1 (centres unmarked) [Comparative agentC, Pursuit, reference compound] has a reported Herbicidal Effet ichibi of 3

C#CC(C)Oc1cc(N(C(=O)C2=C(C(=O)OCCCC)CCCC2)C(=O)c2ccsc2)c(F)cc1Cl (centres unmarked) has a reported Herbicidal Effet ichibi of 5

----------
# reported Herbicidal Effect ichibi; entries follow
- System: ichibi (velvetleaf, Abutilon theophrasti)
- assay overview: Experiment 6 foliage treatment: ichibi
- Assay type: in vivo
- Set-up: key: 5: completely killed; 4: seriously injured; 3: considerably injured; 2: somewhat injured; 1: slightly injured; 0: not injured (normally grown)
- experimental conditions: 8 g/10a, foliage spray of wettable powder suspension, evaluated 4 weeks after treatment

Take a look at these entries with their results.
# compound, target under test, result
records = [
    ("COC(=O)C1=C(C(=O)N(C(=O)c2cccnc2)c2cc(C(=O)OC)c(Cl)cc2F)CCCC1", "ichibi (velvetleaf, Abutilon theophrasti)", 5),
    ("C#CC(C)Oc1cc(N(C(=O)C2=C(C(=O)OCCOCC)CCCC2)C(=O)c2cccnc2)c(F)cc1Cl (stereo not shown)", "ichibi (velvetleaf, Abutilon theophrasti)", 5),
    ("CCc1cnc(C2=NC(C)(C(C)C)C(=O)N2)c(C(=O)O)c1 (stereo not shown) [Comparative agentC, Pursuit, reference compound]", "ichibi (velvetleaf, Abutilon theophrasti)", 3),
]

Alright, here's another compound for you.
Entry C#CC(C)Oc1cc(N(C(=O)C2=C(C(=O)OC)CCCC2)C(=O)c2cncc(C(=O)OC)c2)c(F)cc1Cl (stereo not shown) , tested on ichibi (velvetleaf, Abutilon theophrasti), has a reported Herbicidal Effect ichibi of 5
